target: Human fibrinogen receptor (αIIbβ3) (Homo sapiens, UniProt P05106+P08514); construct: Human fibrinogen receptor (αIIbβ3) was purified from outdated platelets; from tissue; host or cells: outdated human platelets; assay: Purified IIb/IIIa receptor assay (solid phase receptor assay, competition with biotinylated vitronectin); assay type: binding; settings: IIb/IIIa IC50
Sequence (P08514 32-887 limits assumed): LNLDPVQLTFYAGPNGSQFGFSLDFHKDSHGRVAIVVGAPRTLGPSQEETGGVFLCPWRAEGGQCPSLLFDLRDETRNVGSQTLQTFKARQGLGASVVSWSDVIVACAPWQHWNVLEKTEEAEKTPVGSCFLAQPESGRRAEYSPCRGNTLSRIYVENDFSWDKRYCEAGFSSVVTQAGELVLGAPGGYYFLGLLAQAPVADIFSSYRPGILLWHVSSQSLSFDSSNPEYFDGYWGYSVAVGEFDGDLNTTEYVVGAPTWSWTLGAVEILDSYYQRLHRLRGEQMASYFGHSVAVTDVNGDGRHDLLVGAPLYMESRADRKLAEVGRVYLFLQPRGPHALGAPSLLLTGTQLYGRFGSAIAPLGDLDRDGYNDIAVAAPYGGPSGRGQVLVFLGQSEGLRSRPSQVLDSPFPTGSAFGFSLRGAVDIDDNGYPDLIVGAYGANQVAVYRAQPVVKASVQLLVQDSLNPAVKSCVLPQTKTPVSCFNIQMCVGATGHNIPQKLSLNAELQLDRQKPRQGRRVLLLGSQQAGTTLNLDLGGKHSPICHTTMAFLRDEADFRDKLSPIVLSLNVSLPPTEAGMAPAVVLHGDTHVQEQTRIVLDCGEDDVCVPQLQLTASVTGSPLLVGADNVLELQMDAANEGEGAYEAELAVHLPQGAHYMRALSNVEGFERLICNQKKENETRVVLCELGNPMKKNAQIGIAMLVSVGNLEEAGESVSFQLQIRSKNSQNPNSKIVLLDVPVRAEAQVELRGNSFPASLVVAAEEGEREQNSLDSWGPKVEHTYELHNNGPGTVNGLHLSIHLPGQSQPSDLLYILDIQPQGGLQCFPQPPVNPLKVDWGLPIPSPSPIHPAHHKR
Sequence (P08514 891-1039 limits assumed): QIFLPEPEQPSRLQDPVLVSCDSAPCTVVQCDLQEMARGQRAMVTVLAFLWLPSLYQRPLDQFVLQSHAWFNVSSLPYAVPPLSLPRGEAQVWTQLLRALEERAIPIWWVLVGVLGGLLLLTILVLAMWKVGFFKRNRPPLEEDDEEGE
Sequence (P05106 27-788): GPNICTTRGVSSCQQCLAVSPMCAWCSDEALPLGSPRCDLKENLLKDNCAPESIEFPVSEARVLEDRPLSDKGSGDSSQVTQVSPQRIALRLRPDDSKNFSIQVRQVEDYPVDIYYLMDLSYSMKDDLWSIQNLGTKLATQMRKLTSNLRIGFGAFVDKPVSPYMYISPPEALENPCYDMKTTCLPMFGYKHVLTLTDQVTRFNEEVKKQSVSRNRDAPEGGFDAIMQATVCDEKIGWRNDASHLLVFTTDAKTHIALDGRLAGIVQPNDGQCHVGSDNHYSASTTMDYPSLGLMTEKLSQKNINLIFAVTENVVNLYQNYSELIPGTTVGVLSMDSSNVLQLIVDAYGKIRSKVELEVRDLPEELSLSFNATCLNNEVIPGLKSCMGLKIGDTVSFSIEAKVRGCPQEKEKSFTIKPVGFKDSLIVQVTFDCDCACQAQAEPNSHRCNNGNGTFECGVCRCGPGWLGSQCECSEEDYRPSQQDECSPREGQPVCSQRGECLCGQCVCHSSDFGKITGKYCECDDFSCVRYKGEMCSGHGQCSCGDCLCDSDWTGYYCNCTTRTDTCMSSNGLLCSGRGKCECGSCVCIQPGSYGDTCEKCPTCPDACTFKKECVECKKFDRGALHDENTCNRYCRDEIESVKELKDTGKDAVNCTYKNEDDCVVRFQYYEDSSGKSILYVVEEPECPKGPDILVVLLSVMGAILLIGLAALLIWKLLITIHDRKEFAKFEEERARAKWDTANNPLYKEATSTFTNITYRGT
Measurement label: pIC50
Reminder that pIC50 is minus the log10 of a molar concentration.

[ask] // pIC50 lookup, key: N=C(N)Nc1cccc(C(=O)NCC(=O)N[C@H](COC(=O)c2ccccc2N)CC(=O)O)c1 [Example 94, monohydrate]
[reply] 7.00

* * *

target: Human fibrinogen receptor (αIIbβ3) (Homo sapiens, UniProt P05106+P08514); construct: Human fibrinogen receptor (αIIbβ3) was purified from outdated platelets; from tissue; host or cells: outdated human platelets; test: Purified IIb/IIIa receptor assay (solid phase receptor assay, competition with biotinylated vitronectin); type: binding; details: read-out: IIb/IIIa IC50
Counter-ions that a name gives are not always drawn.
Measurement label: pIC50
Reminder that pIC50 is minus the log10 of a molar concentration.

[ask] // pIC50 lookup, key: N=C(N)Nc1cccc(C(=O)NCC(=O)NC(CC(=O)O)c2ccccc2)c1 (racemic) [Example 4, trifluoroacetate salt]
[reply] 6.33

[ask] // pIC50 lookup, key: N=C(N)Nc1cccc(C(=O)NCC(=O)NC(CC(=O)O)c2cc(C(F)(F)F)cc(C(F)(F)F)c2)c1 (racemic) [Example 36, trifluoroacetate salt]
[reply] 5.80

[ask] // pIC50 lookup, key: CCOC(=O)CC(NC(=O)CNC(=O)c1cccc(NC(=N)N)c1)c1cccnc1 (racemic)
[reply] 5.08

[ask] // pIC50 lookup, key: N=C(N)Nc1cc(NC(=O)C(F)(F)F)cc(C(=O)NCC(=O)NC(CC(=O)O)c2cc(Cl)cc(Cl)c2)c1 (centres unmarked) [Example 292, trifluoroacetate salt]
[reply] 6.47

[ask] // pIC50 lookup, key: N=C(N)NCc1cccc(C(=O)NCC(=O)NC(CC(=O)O)c2cccnc2)c1 (racemic)
[reply] 8.09

[ask] // pIC50 lookup, key: N#C/N=C(/NCc1cccnc1)Nc1cccc(C(=O)NCC(=O)NC(CC(=O)O)c2ccccc2)c1 (centres unmarked)
[reply] 6.06

[ask] // pIC50 lookup, key: N=C(N)Nc1cccc(C(=O)NCC(=O)NC(CC(=O)O)C(F)(F)F)c1 (centres unmarked) [Example 261, trifluoroacetate salt]
[reply] 5.33

[ask] // pIC50 lookup, key: COC(=O)c1ccccc1SCCC(CC(=O)O)NC(=O)CNC(=O)c1cccc(NC(=N)N)c1 (racemic) [Example 62, trifluoroacetate salt]
[reply] 7.55

[ask] // pIC50 lookup, key: N=C(N)Nc1cccc(C(=O)NC2CCN(CCC(=O)O)C2=O)c1 (racemic) [Example 42, trifluoroacetate salt]
[reply] 5.01

[ask] // pIC50 lookup, key: N=C(N)Nc1cc(C(=O)O)cc(C(=O)NCC(=O)NC(CC(=O)O)c2cc(Cl)cc(Cl)c2)c1 (centres unmarked) [Example 290, trifluoroacetate salt]
[reply] 5.99

[ask] // pIC50 lookup, key: Cc1ccc(O)c(C(CC(=O)O)NC(=O)CNC(=O)c2cccc(NC(=N)N)c2)c1 (racemic) [Example 88, trifluoroacetate salt]
[reply] 6.02

[ask] // pIC50 lookup, key: CSc1cccc(C(CC(=O)O)NC(=O)CNC(=O)c2cccc(NC(=N)N)c2)c1 (racemic) [Example 245, trifluoroacetate salt]
[reply] 6.87

[ask] // pIC50 lookup, key: CCOc1cc(OCC)cc(C(CC(=O)O)NC(=O)CNC(=O)c2cccc(NC(=N)N)c2)c1 (centres unmarked) [Example 249, trifluoroacetate salt]
[reply] 6.61

[ask] // pIC50 lookup, key: CNC(=NC(N)=O)Nc1cccc(C(=O)NCC(=O)NC(CC(=O)O)c2cc(Cl)cc(Cl)c2)c1 (racemic)
[reply] 4.97

[ask] // pIC50 lookup, key: O=C(O)CC(NC(=O)CNC(=O)c1cccc(NC(=O)NCCc2ccccc2)c1)c1cccnc1 (centres unmarked) [Example 130, trifluoroacetate salt]
[reply] 5.57

[ask] // pIC50 lookup, key: CCOC(=O)/N=C(/NC(=O)OCC)Nc1cccc(C(=O)NCC(=O)NC(CC(=O)O)c2cc(Cl)cc(Cl)c2)c1 (centres unmarked)
[reply] 4.34

[ask] // pIC50 lookup, key: Cc1ccc(S(=O)(=O)NCC(CC(=O)O)NC(=O)CNC(=O)c2cccc(NC(=N)N)c2)cc1 (centres unmarked) [Example 65, trifluoroacetate salt]
[reply] 6.77

[ask] // pIC50 lookup, key: N=C(N)Nc1cccc(C(=O)NCC(=O)NC(CC(=O)O)c2ccc3c(c2)OCO3)c1 (racemic) [Example 6, trifluoroacetate salt]
[reply] 7.80

[ask] // pIC50 lookup, key: N=C(N)Nc1cccc(C(=O)NCC(=O)NC(CC(=O)O)c2ccc(Cl)s2)c1 (centres unmarked) [251(C), trifluoroacetate salt]
[reply] 6.91

[ask] // pIC50 lookup, key: O=C(O)CC(NC(=O)CNC(=O)c1cccc(NC(=O)NCc2ccncc2)c1)c1cccnc1 (centres unmarked)
[reply] 5.74

[ask] // pIC50 lookup, key: O=C(O)CC(NC(=O)CNC(=O)c1cccc(NC2=NCCN2)c1)c1cc(Cl)cc(Cl)c1O (racemic) [Example 238, trifluoroacetate salt, monohydrate]
[reply] 6.19

[ask] // pIC50 lookup, key: O=C(O)CC(NC(=O)CNC(=O)c1cccc(NC(=O)NCc2cc(Cl)cc(Cl)c2)c1)c1cccnc1 (centres unmarked) [Example 273, trifluoroacetate salt]
[reply] 5.38

[ask] // pIC50 lookup, key: N=C(N)Nc1cccc(C(=O)NCC(=O)NC(CC(=O)O)c2c(F)c(F)cc(F)c2F)c1 (racemic) [Example 365, trifluoroacetate salt]
[reply] 5.07

[ask] // pIC50 lookup, key: O=C(O)CC(NC(=O)CNC(=O)c1cccc(Nc2cc(=O)[nH]c(=O)[nH]2)c1)c1cc(Cl)cc(Cl)c1 (centres unmarked)
[reply] 4.74

[ask] // pIC50 lookup, key: N=C(N)Nc1cccc(C(=O)NCC(=O)NC(CC(=O)O)c2cc(Br)cc(Cl)c2O)c1 (centres unmarked) [Example 265, trifluoroacetate salt]
[reply] 6.15
